# target-of-assay: recombinant guanylate cyclase reporter cell line (Rattus norvegicus, UniProt P19686+P20595)
# Construct: expressed in transfected cells
# experiment: Effect on a recombinant guanylate cyclase reporter cell line
# Type: cell-based
# condition-description: MEC = minimum effective concentration; in some cases mean values for individual determinations
measured-quantity: MEC (µM)

INSERT INTO assay_data (smiles_record, units_text, reported_measurement) VALUES
  ('Cc1nc2c(OCc3c(F)cccc3F)cc(Cl)cn2c1C(=O)Nc1ccnc2ccc(F)cc12', 'µM', 0.1),
  ('COc1cccc(C)c1NC(=O)c1c(C)nc2c(OCc3c(F)cccc3F)cccn12', 'µM', 0.3),
  ('Cc1cc(OCC2CC(F)(F)C2)c2nc(C)c(C(=O)Nc3c(C)n[nH]c3C(F)(F)F)n2c1', 'µM', 3.0),
  ('CCn1nccc1NC(=O)c1c(C)nc2c(OCc3c(F)cccc3F)cccn12', 'µM', 1.0),
  ('Cc1cc(NC(=O)c2c(C)nc3c(OCc4c(F)cccc4F)cccn23)cc(C)n1', 'µM', 1.0),
  ('Cc1nn(CC(F)(F)F)c(C)c1NC(=O)c1c(C)nc2c(OCc3c(F)cccc3F)cc(Cl)cn12', 'µM', 0.03);

P = Cc1nc2c(OCc3c(F)cccc3F)cccn2c1C(=O)Nc1cnn(CCO)c1
Q = Cc1nc2c(OCc3c(F)cccc3F)cccn2c1C(=O)Nc1ccc(N2CCNCC2)c(C(F)(F)F)c1
Query: # return whichever of P and Q has the smaller MEC Answer with the label corresponding to your selection.
Result: Q

====

# target-of-assay: recombinant guanylate cyclase reporter cell line (Rattus norvegicus, UniProt P19686+P20595)
# Construct: expressed in transfected cells
# experiment: Effect on a recombinant guanylate cyclase reporter cell line
# Format: cell-based
# condition-description: MEC = minimum effective concentration; in some cases mean values for individual determinations
measured-quantity: MEC (µM)

Observe how each entry below is paired with its result.
INSERT INTO measurements (molecule, measured_quantity, reported_measurement) VALUES
  ('Cc1nn(C)cc1NC(=O)c1c(C)nc2c(OCc3c(F)cccc3F)cccn12 [Example 4]', 'MEC', 0.3),
  ('Cc1nc2c(OCc3c(F)cccc3F)cc(Cl)cn2c1C(=O)Nc1cnn(C(C)C)c1 [Example 45]', 'MEC', 0.3),
  ('Cc1nc2c(OCc3c(F)cccc3F)cccn2c1C(=O)Nc1ccnn1C(C)C [Example 21]', 'MEC', 1.0);

a = Cc1cccc(NC(=O)c2c(C)nc3c(OCc4c(F)cccc4F)cccn23)c1C [Example 12]
b = Cc1cc(NC(=O)c2c(C)nc3c(OCc4c(F)cccc4F)cccn23)c2ccccc2n1 [Example 69]
c = Cc1nn(C)c(N2CCOCC2)c1NC(=O)c1c(C)nc2c(OCc3c(F)cccc3F)cccn12 [Example 34]
Query: Could you please order the items by MEC, going from the lowest number to the highest? # answer = labels listed in requested order
Result: a, b, c

====

# target-of-assay: recombinant guanylate cyclase reporter cell line (Rattus norvegicus, UniProt P19686+P20595)
# Construct: expressed in transfected cells
# experiment: Effect on a recombinant guanylate cyclase reporter cell line
# Type: cell-based
# condition-description: MEC = minimum effective concentration; in some cases mean values for individual determinations
measured-quantity: MEC (µM)

INSERT INTO assay_data (smiles_record, units_text, reported_measurement) VALUES
  ('Cc1nc2c(OCc3c(F)cccc3F)cccn2c1C(=O)Nc1ccccc1CN', 'µM', 1.0);

P = Cc1nc2c(OCc3c(F)cccc3F)cccn2c1C(=O)Nc1ccnc2c(F)cccc12
Q = Cc1nc2c(OCc3c(F)cccc3F)cccn2c1C(=O)Nc1cccc2cc(Cl)ccc12
R = Cc1nc2c(OCc3c(F)cccc3F)cccn2c1C(=O)Nc1nccs1
Query: Could you please order the items by MEC, going from the lowest number to the highest? # answer = labels listed in requested order
Result: Q, P, R
(Q: 0.3 µM, P: 1.0 µM, R: 3.0 µM)

====

# target-of-assay: recombinant guanylate cyclase reporter cell line (Rattus norvegicus, UniProt P19686+P20595)
# Construct: expressed in transfected cells
# experiment: Effect on a recombinant guanylate cyclase reporter cell line
# Format: cell-based
# condition-description: MEC = minimum effective concentration; in some cases mean values for individual determinations
Structures can show the parent of a compound that is named as a salt.
measured-quantity: MEC (µM)

INSERT INTO results (compound, measured_quantity, units_text, reported_measurement) VALUES
  ('Cc1n[nH]cc1NC(=O)c1c(C)nc2c(OCc3c(F)cccc3F)cccn12', 'MEC', 'µM', 0.3),
  ('Cc1nc2c(OCc3c(F)cccc3F)cc(Cl)cn2c1C(=O)Nc1cn[nH]c1C', 'MEC', 'µM', 0.3),
  ('CC(=O)Nc1ccc(NC(=O)c2c(C)nc3c(OCc4c(F)cccc4F)cccn23)cc1C(F)(F)F', 'MEC', 'µM', 0.3),
  ('Cc1nc2c(OCc3c(F)cccc3F)cccn2c1C(=O)Nc1cccc2cccc(Cl)c12 [Example 60, trifluoroacetate]', 'MEC', 'µM', 0.3),
  ('Cc1cc(OCc2c(F)cccc2F)c2nc(C)c(C(=O)Nc3cccc(S(C)(=O)=O)c3)n2c1', 'MEC', 'µM', 1.0);

I = CNC(=O)c1c(NC(=O)c2c(C)nc3c(OCc4c(F)cccc4F)cccn23)cnn1C
II = Cc1cc2c(NC(=O)c3c(C)nc4c(OCc5c(F)cccc5F)cccn34)cccc2nn1
III = Cc1nc2c(OCc3c(F)cccc3F)cccn2c1C(=O)Nc1ccnc2ccc(F)cc12
Query: Could you please order the items by MEC, going from the lowest number to the highest? # answer = labels listed in requested order
Result: III, II, I

====

# target-of-assay: recombinant guanylate cyclase reporter cell line (Rattus norvegicus, UniProt P19686+P20595)
# Construct: expressed in transfected cells
# Sequence (P19686 1-690): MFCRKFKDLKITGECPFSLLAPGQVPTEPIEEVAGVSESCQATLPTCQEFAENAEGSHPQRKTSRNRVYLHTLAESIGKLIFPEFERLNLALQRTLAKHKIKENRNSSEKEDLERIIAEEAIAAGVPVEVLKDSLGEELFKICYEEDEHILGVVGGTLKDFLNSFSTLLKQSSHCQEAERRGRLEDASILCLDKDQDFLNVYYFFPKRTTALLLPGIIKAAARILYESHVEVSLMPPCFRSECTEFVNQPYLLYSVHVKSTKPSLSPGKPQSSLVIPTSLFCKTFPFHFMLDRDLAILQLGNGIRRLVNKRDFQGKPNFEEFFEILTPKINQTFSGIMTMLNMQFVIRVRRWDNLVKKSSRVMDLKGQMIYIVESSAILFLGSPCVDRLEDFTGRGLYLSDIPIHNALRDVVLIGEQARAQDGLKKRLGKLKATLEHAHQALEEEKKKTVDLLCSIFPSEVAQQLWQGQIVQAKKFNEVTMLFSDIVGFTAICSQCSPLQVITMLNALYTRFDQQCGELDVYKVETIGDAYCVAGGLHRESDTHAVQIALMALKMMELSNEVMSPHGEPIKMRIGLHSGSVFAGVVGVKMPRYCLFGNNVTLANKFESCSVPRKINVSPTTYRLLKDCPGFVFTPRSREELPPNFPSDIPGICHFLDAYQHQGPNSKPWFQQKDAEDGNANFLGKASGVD
# Sequence (P20595 1-619): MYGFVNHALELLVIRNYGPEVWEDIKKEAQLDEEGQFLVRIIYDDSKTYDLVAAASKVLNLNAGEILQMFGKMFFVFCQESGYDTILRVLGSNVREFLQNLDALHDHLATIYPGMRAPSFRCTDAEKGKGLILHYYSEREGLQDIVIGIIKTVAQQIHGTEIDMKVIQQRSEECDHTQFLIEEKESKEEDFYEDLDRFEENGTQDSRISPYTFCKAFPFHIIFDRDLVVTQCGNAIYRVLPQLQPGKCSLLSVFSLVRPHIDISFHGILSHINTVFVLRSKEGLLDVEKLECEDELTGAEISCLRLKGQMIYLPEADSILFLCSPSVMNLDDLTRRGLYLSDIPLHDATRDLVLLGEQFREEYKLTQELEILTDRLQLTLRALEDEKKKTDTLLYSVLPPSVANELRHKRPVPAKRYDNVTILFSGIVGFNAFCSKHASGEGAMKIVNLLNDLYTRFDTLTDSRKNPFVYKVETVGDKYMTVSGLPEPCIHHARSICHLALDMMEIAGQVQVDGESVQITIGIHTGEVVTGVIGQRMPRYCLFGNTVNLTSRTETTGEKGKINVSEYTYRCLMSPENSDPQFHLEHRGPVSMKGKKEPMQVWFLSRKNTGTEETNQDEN
# experiment: Effect on a recombinant guanylate cyclase reporter cell line
# Format: cell-based
# condition-description: MEC = minimum effective concentration; in some cases mean values for individual determinations
measured-quantity: MEC (µM)

INSERT INTO assay_data (compound, measured_quantity, reported_measurement) VALUES
  ('Cc1nc2c(OCc3c(F)cccc3F)cccn2c1C(=O)Nc1cccc2ncccc12', 'MEC', 0.3);

P = Cc1nc2c(OCc3c(F)cccc3F)cccn2c1C(=O)Nc1cc(C)n(C)n1
Q = Cc1nc2c(OCc3c(F)cccc3F)cccn2c1C(=O)Nc1cnn(CCOC(N)=O)c1
Query: # return whichever of P and Q has the smaller MEC Answer with the label corresponding to your selection.
Result: P
(P: 3.0 µM, Q: 10 µM)

1 = Cc1nc2c(OCc3c(F)cccc3F)cccn2c1C(=O)Nc1cc[nH]n1
2 = Cc1nc2c(OCc3c(F)cccc3F)cc(Cl)cn2c1C(=O)Nc1cnn(CCF)c1
3 = Cc1nc2c(OCc3c(F)cccc3F)cccn2c1C(=O)Nc1n[nH]c2ccc(C(F)(F)F)cc12
Query: Please rank these compounds by MEC in descending order. # answer = labels listed in requested order
Result: 1, 2, 3
(1: 3.0 µM, 2: 1.0 µM, 3: 0.3 µM)
